Reference source for all entries: patent US8901118B2

- System Under Test: BCR-NTRK1 BaF3 cells (Homo sapiens, UniProt P04629)
- Construct: fused on or other part: P11274 (Breakpoint cluster region protein)
- Sequence (P04629 510-781): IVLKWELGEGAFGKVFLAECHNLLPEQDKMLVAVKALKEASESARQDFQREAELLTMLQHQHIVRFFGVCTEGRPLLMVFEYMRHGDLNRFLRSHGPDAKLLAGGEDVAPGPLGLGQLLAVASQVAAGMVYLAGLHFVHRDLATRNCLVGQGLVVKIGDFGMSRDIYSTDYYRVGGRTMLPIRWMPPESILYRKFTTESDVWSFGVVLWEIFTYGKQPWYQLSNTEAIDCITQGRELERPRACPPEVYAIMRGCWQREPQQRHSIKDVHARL
- Experiment: BaF3 BCR-NTRK1 cell proliferation assay (ATPlite)
- Condition Notes: read-out: Inhibition of Cell Proliferation IC50, BCR/BaF3 TrkA
Measured Attribute: IC50

# Compound, IC50
records = [
    ("CCOc1ncnc2[nH]cc(Cc3ccc(Nc4ccc(C)nc4)nc3F)c12 [Compound P-4017]", "< 1 µM"),
    ("CCc1ccc(Nc2ccc(Cc3c[nH]c4ncc(C)cc34)c(F)n2)cn1 [Compound P-3048]", "< 0.1 µM"),
]

The compound listed as CCc1ccc(Nc2ccc(Cc3c[nH]c4ncnc(OCCOC)c34)c(F)n2)cn1 [Compound P-4016] has a reported IC50 of < 0.1 µM

The compound listed as CNc1ncnc2[nH]cc(C(=O)c3ccc(Nc4ccc(OC)nc4)nc3F)c12 [Compound P-4083] has a reported IC50 of < 0.01 µM

The compound listed as CNc1ncnc2[nH]cc(C(=O)c3ccc(NC4CCCCC4)nc3F)c12 [Compound P-4102] has a reported IC50 of < 1 µM

The compound listed as CCN1CCC(Nc2ncnc3[nH]cc(C(=O)c4ccc(Nc5ccc(OC)nc5)nc4F)c23)CC1 [Compound P-4074] has a reported IC50 of < 0.1 µM

The compound listed as Cc1cnc2[nH]cc(C(=O)c3ccc(Nc4ccc(C5CC5)nc4)nc3F)c2c1 [Compound P-3051] has a reported IC50 of < 0.1 µM

The compound listed as CCn1cc(Nc2ccc(Cc3c[nH]c4ncnc(OC)c34)c(F)n2)cn1 [Compound P-4011] has a reported IC50 of < 1 µM

----------
- System Under Test: CYP1A2 (Homo sapiens, UniProt P05177)
- Sequence (P05177 1-516): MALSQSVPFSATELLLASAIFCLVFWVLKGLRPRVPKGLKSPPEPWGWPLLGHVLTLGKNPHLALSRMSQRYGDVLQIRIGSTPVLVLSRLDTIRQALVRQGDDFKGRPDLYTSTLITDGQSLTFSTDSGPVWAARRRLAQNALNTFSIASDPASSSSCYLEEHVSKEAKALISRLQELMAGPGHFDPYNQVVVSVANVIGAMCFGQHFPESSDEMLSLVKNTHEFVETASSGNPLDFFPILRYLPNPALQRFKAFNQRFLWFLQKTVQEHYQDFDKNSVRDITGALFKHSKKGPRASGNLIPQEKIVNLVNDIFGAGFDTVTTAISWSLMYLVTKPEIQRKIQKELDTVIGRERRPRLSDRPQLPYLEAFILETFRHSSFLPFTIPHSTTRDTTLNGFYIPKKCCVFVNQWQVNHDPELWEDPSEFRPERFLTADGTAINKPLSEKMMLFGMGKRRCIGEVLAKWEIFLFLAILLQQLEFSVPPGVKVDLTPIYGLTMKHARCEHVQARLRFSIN
pIC50: −log10 of the molar value.
Measured Attribute: pIC50

# Compound, Measured Attribute, Result
measured = [
    ("COc1ccc(Nc2ccc(C(=O)c3c[nH]c4ncnc(N5CCCCC5)c34)c(F)n2)cn1", "pIC50", "< 5.00"),
]

Now let's try a different one.
The compound listed as "COc1ccc(Nc2ccc(C(=O)c3c[nH]c4ncnc(NC5CCCCC5)c34)c(F)n2)cn1" has a reported pIC50 of < 5.00

----------
- System Under Test: BCR-FMS BaF3 cells (Homo sapiens, UniProt P07333)
- Construct: fused on or other part: P11274 (Breakpoint cluster region protein)
- Sequence (P07333 582-910): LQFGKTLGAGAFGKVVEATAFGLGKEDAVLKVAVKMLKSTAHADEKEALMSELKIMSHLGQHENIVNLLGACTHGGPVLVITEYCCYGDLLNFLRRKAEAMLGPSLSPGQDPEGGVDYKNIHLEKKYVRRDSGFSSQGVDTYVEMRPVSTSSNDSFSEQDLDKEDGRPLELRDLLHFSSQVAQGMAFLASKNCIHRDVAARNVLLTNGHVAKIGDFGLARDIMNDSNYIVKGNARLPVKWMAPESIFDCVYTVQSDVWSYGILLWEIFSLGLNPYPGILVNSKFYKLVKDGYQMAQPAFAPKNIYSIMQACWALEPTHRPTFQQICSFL
- Experiment: BaF3 BCR-FMS cell proliferation assay (ATPlite)
- Condition Notes: read-out: Inhibition of Cell Proliferation IC50, BCR/BaF3 Fms
pIC50: −log10 of the molar value.
Measured Attribute: pIC50

# Entry Smiles, pIC50
records = [
    ("CNc1ncnc2[nH]cc(C(=O)c3ccc(Nc4ccc(C5CC5)nc4)nc3F)c12", "> 7.00"),
    ("CC(C)=CNc1ncnc2[nH]cc(C(=O)c3ccc(NC4CCC(F)(F)CC4)nc3Cl)c12", "< 6.00"),
    ("CSc1ccc(Nc2ncc(Cc3c[nH]c4ncc(C)cc34)cn2)cc1", "> 8.00"),
]

The molecule listed as "COc1ccc(Nc2ccc(C(=O)c3c[nH]c4ncnc(NC5CCC(F)(F)CC5)c34)c(F)n2)cn1" has a reported pIC50 of > 6.00

----------
- System Under Test: BCR-NTRK1 BaF3 cells (Homo sapiens)
- Construct: fused on or other part: P11274 (Breakpoint cluster region protein)
- Experiment: BaF3 BCR-NTRK1 cell proliferation assay (ATPlite)
- Condition Notes: read-out: Inhibition of Cell Proliferation IC50, BCR/BaF3 TrkA
- Method: Compounds are assessed in a variety of cell based assays. […] On day 1, cells are counted, then centrifuged in a conical tube for 5 minutes at 1000 rpm. […] On day 5, ATPlite 1 step Luminescence Assay System (Perkin Elmer #6016739) is brought to room temperature along with the cell cultures. […] The cells are incubated at room temperature for 10 minutes, then luminescence is read on Safire reader. […]
IC50 listing for selected compounds.

# Entry Smiles, IC50
rows = [
    ("CCc1ccc(Nc2ccc(C(=O)c3c[nH]c4ncnc(NCC(C)C)c34)c(F)n2)cn1", "< 10 nM"),
]

The compound listed as "COc1ccc(Nc2ccc(C(=O)c3c[nH]c4ncnc(NC(C)(C)C)c34)c(F)n2)cn1" has a reported IC50 of < 1000 nM

The compound listed as "Cc1cncc(Nc2ccc(C(=O)c3c[nH]c4ncnc(C5CC5)c34)c(F)n2)c1" has a reported IC50 of < 100 nM

The compound listed as "COc1ccc(Nc2ncc(Cc3c[nH]c4ncc(C)cc34)cn2)cn1" has a reported IC50 of < 100 nM

The compound listed as "CCc1ccc(Nc2ccc(C(=O)c3c[nH]c4ncnc(N)c34)c(F)n2)cn1" has a reported IC50 of < 100 nM

The compound listed as "CCc1ccc(Nc2ccc(C(=O)c3c[nH]c4ncnc(C5CC5)c34)c(F)n2)cn1" has a reported IC50 of < 10 nM

The compound listed as "COc1ccc(Nc2ccc(Cc3c[nH]c4ncc(C)cc34)c(F)n2)cn1" has a reported IC50 of < 100 nM

The compound listed as "Clc1cnc2[nH]cc(Cc3cnc(Nc4ccccc4Cl)nc3)c2c1" has a reported IC50 of > 10000 nM

The compound listed as "CCc1ccc(Nc2ccc(C(=O)c3c[nH]c4ncnc(NC5CCC5)c34)c(F)n2)cn1" has a reported IC50 of < 10 nM

The compound listed as "Cc1cnc2[nH]cc(Cc3cnc(Nc4cc(OC(C)C)n[nH]4)nc3)c2c1" has a reported IC50 of < 1000 nM

----------
- System Under Test: c-Kit kinase (Homo sapiens, UniProt P10721)
- Sequence (P10721 26-976): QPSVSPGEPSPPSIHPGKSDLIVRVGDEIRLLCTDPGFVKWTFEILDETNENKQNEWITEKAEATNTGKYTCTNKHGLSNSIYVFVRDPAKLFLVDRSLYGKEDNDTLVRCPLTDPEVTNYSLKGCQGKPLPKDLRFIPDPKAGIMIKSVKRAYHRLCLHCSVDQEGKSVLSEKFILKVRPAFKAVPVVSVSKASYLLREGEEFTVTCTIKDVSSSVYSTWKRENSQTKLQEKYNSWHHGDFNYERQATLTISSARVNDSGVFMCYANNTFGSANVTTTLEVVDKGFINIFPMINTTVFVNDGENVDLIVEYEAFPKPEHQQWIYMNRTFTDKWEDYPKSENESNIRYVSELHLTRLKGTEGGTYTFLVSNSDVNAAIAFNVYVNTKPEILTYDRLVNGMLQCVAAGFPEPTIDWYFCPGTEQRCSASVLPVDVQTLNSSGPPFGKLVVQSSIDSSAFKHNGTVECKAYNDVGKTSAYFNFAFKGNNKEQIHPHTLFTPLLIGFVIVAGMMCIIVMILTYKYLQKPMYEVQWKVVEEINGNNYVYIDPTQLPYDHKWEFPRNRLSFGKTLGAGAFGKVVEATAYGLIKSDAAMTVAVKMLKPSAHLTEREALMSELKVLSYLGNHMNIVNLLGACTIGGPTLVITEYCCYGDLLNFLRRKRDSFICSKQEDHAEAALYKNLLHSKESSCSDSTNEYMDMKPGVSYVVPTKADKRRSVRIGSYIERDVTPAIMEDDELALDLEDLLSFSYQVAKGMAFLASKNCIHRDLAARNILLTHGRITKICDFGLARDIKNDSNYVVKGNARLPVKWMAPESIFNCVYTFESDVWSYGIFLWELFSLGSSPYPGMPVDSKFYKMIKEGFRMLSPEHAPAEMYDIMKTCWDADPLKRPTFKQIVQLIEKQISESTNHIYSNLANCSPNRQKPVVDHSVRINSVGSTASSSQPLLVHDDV
IC50 listing for selected compounds.

Some compounds with known IC50 results, for comparison:
# Compound, System Under Test, Result
records = [
    ("Fc1nc(NC2CCC(F)(F)CC2)ccc1Cc1c[nH]c2ncc(Cl)cc12 [Compound P-3013]", "c-Kit kinase (Homo sapiens, UniProt P10721)", "< 1000 nM"),
    ("COc1ccc(Nc2ccc(C(=O)c3c[nH]c4ncnc(NC5CCC5)c34)c(F)n2)cn1 [Compound P-4076]", "c-Kit kinase (Homo sapiens, UniProt P10721)", "< 100 nM"),
    ("CC(C)Nc1ncnc2[nH]cc(C(=O)c3ccc(NC4CCCCC4)nc3Cl)c12 [Compound P-4109]", "c-Kit kinase (Homo sapiens, UniProt P10721)", "< 1000 nM"),
    ("CCn1cc(Nc2ccc(Cc3c[nH]c4ncnc(C)c34)c(F)n2)cn1 [Compound P-4013]", "c-Kit kinase (Homo sapiens, UniProt P10721)", "< 1000 nM"),
    ("CCNc1ncnc2[nH]cc(C(=O)c3ccc(Nc4ccc(OC)nc4)nc3F)c12 [Compound P-4081]", "c-Kit kinase (Homo sapiens, UniProt P10721)", "< 100 nM"),
]

Lab entry: c-Kit kinase (Homo sapiens, UniProt P10721) assay, compound COc1ccc(Nc2ccc(C(=O)c3c[nH]c4ncnc(NC5CCCC5)c34)c(F)n2)cn1 [Compound P-4075] , IC50 = < 1000 nM

Lab entry: c-Kit kinase (Homo sapiens, UniProt P10721) assay, compound COc1ccc(Nc2ccc(C(=O)c3c[nH]c4ncnc(NC5CCC(F)(F)CC5)c34)c(F)n2)cn1 [Compound P-4056] , IC50 = < 100 nM

Lab entry: c-Kit kinase (Homo sapiens, UniProt P10721) assay, compound O=C(c1cnc(NC2CCC(F)(F)CC2)c(F)c1)c1c[nH]c2ncnc(NCC(F)(F)F)c12 [Compound P-4052] , IC50 = > 1000 nM

Lab entry: c-Kit kinase (Homo sapiens, UniProt P10721) assay, compound COc1cncc(Nc2ccc(C(=O)c3c[nH]c4ncnc(NC(C)C)c34)c(F)n2)c1 [Compound P-4106] , IC50 = < 1000 nM

Lab entry: c-Kit kinase (Homo sapiens, UniProt P10721) assay, compound Clc1cnc2[nH]cc(Cc3cnc(NC4CC4)nc3)c2c1 [Compound P-3005] , IC50 = > 1000 nM

Lab entry: c-Kit kinase (Homo sapiens, UniProt P10721) assay, compound COc1ccc(Nc2ccc(C(=O)c3c[nH]c4ncnc(NC5CCCCC5)c34)c(F)n2)cn1 [Compound P-4082] , IC50 = < 1000 nM
